# Assay notes: Toxicity liver stage against HepG2, at 10uM
# Type: cell-based
# Set-up: test concentration 10 uM, cell line HepG2-A16-CD81EGFP
# Condition parameters: human, HepG2-A16-CD81EGFP cells; read-out: INHIBITION
Recorded metric: cytotoxicity at 10 µM (%)
Give the quantity in %, number only.

// recorded cytotoxicity at 10 µM for "Cc1cc(C)n2ncc(CN3CCC(n4cc(CCO)nn4)CC3)c2n1" : 6.59

Per the record, "COc1ccccc1-n1nc(CC(C)C)nc1CSc1nnc(N)s1" has cytotoxicity at 10 µM of 1.62

What the record says about CC1CCCN1Cc1ccccc1-c1nc(C(C)(C)C)cc(=O)[nH]1 (stereo unspecified) : cytotoxicity at 10 µM is 11.4

Record Cc1cccc(-n2ncc(C(=O)NCC3CCS(=O)(=O)C3)c2C)c1 (stereo unspecified) . Reported cytotoxicity at 10 µM: -20.3

Memo: Cc1noc(C)c1CN1Cc2nccn2CC(CN2CCOCC2)C1 (stereo unspecified) , reported cytotoxicity at 10 µM: -82

Looking up CCSCCC(C)N(C)C(=O)c1ccc(C)o1 (stereo unspecified) , I see its cytotoxicity at 10 µM listed as -3.75
